Molecular target: EPHB2 (UniProt P29323)
Sequence (P29323 whole entry, looked up): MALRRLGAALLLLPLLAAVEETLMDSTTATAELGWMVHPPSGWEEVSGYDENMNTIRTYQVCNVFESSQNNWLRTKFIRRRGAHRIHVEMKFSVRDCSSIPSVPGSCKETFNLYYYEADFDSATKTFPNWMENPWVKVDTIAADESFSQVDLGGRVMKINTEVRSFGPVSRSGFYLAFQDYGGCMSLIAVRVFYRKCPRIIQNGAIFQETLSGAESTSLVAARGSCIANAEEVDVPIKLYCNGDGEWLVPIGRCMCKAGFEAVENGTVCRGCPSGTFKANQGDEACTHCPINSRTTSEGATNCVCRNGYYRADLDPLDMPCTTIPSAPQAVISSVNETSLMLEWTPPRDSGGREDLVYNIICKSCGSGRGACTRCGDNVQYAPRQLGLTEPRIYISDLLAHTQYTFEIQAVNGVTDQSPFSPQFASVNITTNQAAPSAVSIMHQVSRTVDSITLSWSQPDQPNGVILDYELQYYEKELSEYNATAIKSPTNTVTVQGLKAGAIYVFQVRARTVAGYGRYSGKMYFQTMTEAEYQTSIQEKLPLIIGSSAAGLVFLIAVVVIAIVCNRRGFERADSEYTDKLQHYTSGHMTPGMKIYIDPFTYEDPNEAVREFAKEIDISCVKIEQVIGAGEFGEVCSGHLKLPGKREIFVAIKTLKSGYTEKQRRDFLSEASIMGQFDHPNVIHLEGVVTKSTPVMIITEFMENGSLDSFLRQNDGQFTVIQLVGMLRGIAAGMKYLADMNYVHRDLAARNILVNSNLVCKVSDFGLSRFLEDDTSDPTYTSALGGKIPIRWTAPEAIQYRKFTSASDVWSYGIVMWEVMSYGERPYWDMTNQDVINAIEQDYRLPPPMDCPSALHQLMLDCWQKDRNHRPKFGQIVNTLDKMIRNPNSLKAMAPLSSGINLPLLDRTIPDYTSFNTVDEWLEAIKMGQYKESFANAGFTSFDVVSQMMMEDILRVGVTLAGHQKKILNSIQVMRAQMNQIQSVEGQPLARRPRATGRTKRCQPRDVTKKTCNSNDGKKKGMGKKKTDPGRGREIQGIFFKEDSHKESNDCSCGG
Assay: phosphorylation enrichment, bacterial display (enrichment ratio); higher = better substrate or ligand; peptides without Tyr show the background
Quick rule: phosphorylation enrichment of at least 0.5 means rule met, below that means rule not met.

seq-text	measured-target	group
IRGNMYFENSF [EGFR_Y112_YF]	EPHB2 (UniProt P29323)	rule met
LSAPCYLNRIS [HEXA_Y421_W420C]	EPHB2 (UniProt P29323)	rule met
SRDPFYEMLAA [CYTH1_Y382]	EPHB2 (UniProt P29323)	rule met
FRIDHYLGKEM [G6PD_Y202_YF]	EPHB2 (UniProt P29323)	rule not met
SHLSSYTTHPQ [NIPBL_Y195_P192L]	EPHB2 (UniProt P29323)	rule not met
YDGKDYIALNE [HLA-A_Y147]	EPHB2 (UniProt P29323)	rule met
FQVRRYDCDCD [CRYGS_Y21_G18V]	EPHB2 (UniProt P29323)	rule met
NRLTDYFEPLL [BBS10_Y536_YF]	EPHB2 (UniProt P29323)	rule met
TNIKRYHIAKV [HARS1_Y150]	EPHB2 (UniProt P29323)	rule not met
VIESSYTSADG [DHCR7_Y382_C380S]	EPHB2 (UniProt P29323)	rule met
KFDLMYAKCAF [TUBA1A_Y399_R402C]	EPHB2 (UniProt P29323)	rule met
IKAGAYDFPSP [CAMK2A_Y230]	EPHB2 (UniProt P29323)	rule not met
DLAHKYHGGGG [HBB_Y146_A141D]	EPHB2 (UniProt P29323)	rule not met
ITNHIYTWVDP [DFNB31_Y234_V229I]	EPHB2 (UniProt P29323)	rule met
QYNMQYSSSAA [ERBB2IP_Y981_I979M]	EPHB2 (UniProt P29323)	rule met
HTEGEYSSLEH [IDH3B_Y171_Q166H]	EPHB2 (UniProt P29323)	rule met
HEKKVYSFCGT [RPS6KA3_Y226_A225V]	EPHB2 (UniProt P29323)	rule met
CEAVEYLESKQ [BTK_Y511_M509V]	EPHB2 (UniProt P29323)	rule met
GNLLIYTEFGN [HGD_Y166_K171N]	EPHB2 (UniProt P29323)	rule met
KENITYMKSEQ [L1TD1_Y24_R27S]	EPHB2 (UniProt P29323)	rule not met
TENAGYFFRIS	EPHB2 (UniProt P29323)	rule met
QRRLIYRCQVG [NR2E3_Y81_R76Q]	EPHB2 (UniProt P29323)	rule met
SISLKYEGRVF [ABL1_Y167_R166K_YF]	EPHB2 (UniProt P29323)	rule met
EKKKYYDTKIE [CASP5_Y104]	EPHB2 (UniProt P29323)	rule met
ADFFDYGHGLS [KHDRBS3_Y304_YF]	EPHB2 (UniProt P29323)	rule not met
LSIQCYLRALD [HMGCS2_Y262]	EPHB2 (UniProt P29323)	rule met
CTTIHYNFICN [TP53_Y234_M237I_YF]	EPHB2 (UniProt P29323)	rule met
WQQQSYLDSEI [CTNNB1_Y30_G34E]	EPHB2 (UniProt P29323)	rule met
AIGYEYSEINI [SIGLEC12_Y588]	EPHB2 (UniProt P29323)	rule met

---

Molecular target: FGFR3 (UniProt P22607)
Sequence (P22607 whole entry, looked up): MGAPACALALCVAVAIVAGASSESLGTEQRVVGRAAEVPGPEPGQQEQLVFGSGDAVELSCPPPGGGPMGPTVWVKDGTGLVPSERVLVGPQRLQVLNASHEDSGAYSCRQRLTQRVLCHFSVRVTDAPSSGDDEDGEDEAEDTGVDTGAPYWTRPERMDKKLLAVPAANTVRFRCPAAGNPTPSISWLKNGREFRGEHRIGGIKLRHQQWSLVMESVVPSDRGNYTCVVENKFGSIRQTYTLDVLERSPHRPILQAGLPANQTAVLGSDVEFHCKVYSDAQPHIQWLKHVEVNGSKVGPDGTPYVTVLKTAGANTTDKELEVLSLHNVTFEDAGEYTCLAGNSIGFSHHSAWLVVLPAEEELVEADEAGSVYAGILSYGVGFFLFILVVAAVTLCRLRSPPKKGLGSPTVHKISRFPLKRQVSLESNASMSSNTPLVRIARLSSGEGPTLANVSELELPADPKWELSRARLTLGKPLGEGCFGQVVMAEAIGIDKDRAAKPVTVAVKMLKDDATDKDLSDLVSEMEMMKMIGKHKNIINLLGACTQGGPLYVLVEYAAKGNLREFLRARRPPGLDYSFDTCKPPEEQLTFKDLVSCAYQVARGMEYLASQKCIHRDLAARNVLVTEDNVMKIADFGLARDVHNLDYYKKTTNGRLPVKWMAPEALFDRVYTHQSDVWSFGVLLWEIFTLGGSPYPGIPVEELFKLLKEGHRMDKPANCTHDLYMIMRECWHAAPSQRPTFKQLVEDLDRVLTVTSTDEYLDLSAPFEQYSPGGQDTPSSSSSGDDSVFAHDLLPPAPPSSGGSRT
Experiment: phosphorylation enrichment, bacterial display (enrichment ratio); higher = better substrate or ligand; peptides without Tyr show the background

seq-text	phosphorylation enrichment
FKTPTYPFLLP [PLD2_Y578_YF]	0.704
VQDPAYLRDID [OPRK1_Y369]	0.708
PSQRRYLFFFS [PTEN_Y174_V175L_YF]	0.915
RRAKGYPINLF [ITGB2_Y125_D128N_YF]	0.465
AGLVQYYMEHH [PTPN11_Y80_E76G]	0.73
FLENFYDLEKD [MMP3_Y42_K45E_YF]	0.679
RDMNAYISPSP [MMAA_Y207_R209S]	0.508
VKKNRYKDILP [PTPN12_Y64]	0.769
SLMGCYNLTFM [HS6ST3_Y323_V320M]	1.02
YGGLRCGYGVL [KRTAP20-2_Y13_Y13C]	0.632
EEQKKYFNATK [SCN5A_Y1494_M1498T_YF]	0.582
IGMFSYVMLAS [GGCX_Y301]	0.851
AELVQYFMEHH [PTPN11_Y80_YF]	0.762
HSVLQYVGGVM [FGGY_Y136]	1.18
AKFPFYEKNKK [FOXL2_Y91]	0.533

---

Target: c-Src SH2
Assay: SH2 binding enrichment of the phosphorylated peptide, bacterial display (enrichment ratio); higher = better substrate or ligand; peptides without Tyr show the background
Quick rule: SH2 binding enrichment of at least 0.6 means MET, below that means NOT MET.

seq-text	group
NTYENYWPFYQ [GATM_Y103_K102N]	MET
DSSIRYLQEIY [FGG_Y135]	NOT MET
LDTFIYDAAVL [GRIN2A_Y730_A727T]	MET
VVEYGYEFFAK [PPP1CB_Y254_D252Y]	MET
QFPDIYAREEV [CRX_Y67_V66I_YF]	NOT MET
LERFIYNREEL [HLA-DPB1_Y59_F64L_YF]	MET
VATRWYQSPEL [CDKL5_Y177_R178Q]	MET
KNEVLYDEENH [ARFGEF1_Y314_G316E]	MET
ADKAAYLQSMN [MYH2_Y389_L393M]	NOT MET
RELGKYGLQAY [ALDH2_Y497_E496K]	NOT MET

---

Molecular target: Jak2 (UniProt O60674)
Sequence (O60674 whole entry, looked up): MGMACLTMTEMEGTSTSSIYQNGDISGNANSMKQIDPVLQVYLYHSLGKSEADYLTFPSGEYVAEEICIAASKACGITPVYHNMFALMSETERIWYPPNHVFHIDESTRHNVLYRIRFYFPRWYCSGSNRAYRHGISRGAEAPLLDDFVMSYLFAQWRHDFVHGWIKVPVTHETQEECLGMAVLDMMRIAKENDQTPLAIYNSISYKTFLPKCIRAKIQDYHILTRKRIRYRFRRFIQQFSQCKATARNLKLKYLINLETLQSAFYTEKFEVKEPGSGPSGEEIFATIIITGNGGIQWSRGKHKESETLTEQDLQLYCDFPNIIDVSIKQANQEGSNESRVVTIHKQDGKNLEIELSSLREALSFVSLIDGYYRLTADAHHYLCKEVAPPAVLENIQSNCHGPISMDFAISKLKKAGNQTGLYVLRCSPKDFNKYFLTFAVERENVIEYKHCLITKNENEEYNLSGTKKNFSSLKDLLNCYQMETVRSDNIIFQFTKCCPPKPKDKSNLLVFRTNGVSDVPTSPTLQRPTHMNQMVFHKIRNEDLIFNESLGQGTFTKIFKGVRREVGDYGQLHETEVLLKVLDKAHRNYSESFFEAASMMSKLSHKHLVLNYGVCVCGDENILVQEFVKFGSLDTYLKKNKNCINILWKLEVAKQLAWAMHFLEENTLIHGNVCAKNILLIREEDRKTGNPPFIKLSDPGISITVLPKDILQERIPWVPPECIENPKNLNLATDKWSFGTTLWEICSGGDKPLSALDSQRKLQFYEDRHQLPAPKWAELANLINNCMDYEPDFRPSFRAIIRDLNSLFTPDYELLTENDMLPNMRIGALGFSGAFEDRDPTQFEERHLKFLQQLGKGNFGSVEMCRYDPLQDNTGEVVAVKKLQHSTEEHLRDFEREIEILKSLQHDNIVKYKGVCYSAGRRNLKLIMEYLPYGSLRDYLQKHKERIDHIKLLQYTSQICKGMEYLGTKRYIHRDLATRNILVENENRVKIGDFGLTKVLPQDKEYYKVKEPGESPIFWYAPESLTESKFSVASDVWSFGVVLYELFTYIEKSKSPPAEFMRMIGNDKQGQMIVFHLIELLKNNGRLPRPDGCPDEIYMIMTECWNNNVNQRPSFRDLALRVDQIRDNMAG
Assay: phosphorylation enrichment, bacterial display (enrichment ratio); higher = better substrate or ligand; peptides without Tyr show the background
This section presents sequences with their documented phosphorylation enrichment values.

seq-text	measured-target	phosphorylation enrichment
KDQGTYEDYVE [MYL6_Y86]	Jak2 (UniProt O60674)	1.13
RGERPYGGGGG [FUS_Y526_R522G]	Jak2 (UniProt O60674)	0.65
LNPFIYSLRNW [OR1A2_Y288]	Jak2 (UniProt O60674)	1.34
PATINYLFEKG [NDUFS8_Y84_P85L]	Jak2 (UniProt O60674)	0.703
QELRRYLKSGI [MICA_Y194_V199I]	Jak2 (UniProt O60674)	0.335
ESDGAYIQRMQ [CCDC137_Y125_H127Q]	Jak2 (UniProt O60674)	0.985
YQNGMYGLHQD [SGSH_Y89_H84Y]	Jak2 (UniProt O60674)	0.712
IHHIDYYKETT [FGFR1_Y653_K656E]	Jak2 (UniProt O60674)	0.513
LSNFNYEQRGA [API5_Y497_G493S]	Jak2 (UniProt O60674)	1.41
GKSHIYFWTLD [EML2_Y230_E235D]	Jak2 (UniProt O60674)	1.11
LRVHSYKSMQH [DRC7_Y516_P521H]	Jak2 (UniProt O60674)	1.42
INNIDYFKNTT [FGFR2_Y656_K659N_YF]	Jak2 (UniProt O60674)	0.463
RESFKYLPSSL [CXXC1_Y218_F219L_YF]	Jak2 (UniProt O60674)	0.837
CTTIHYDYMCN [TP53_Y234_N235D]	Jak2 (UniProt O60674)	1.03
RSSNTYTLMDV [ALCAM_Y298_T301M]	Jak2 (UniProt O60674)	0.309
PDMHSYVVRYN [GRIN2D_Y732_M733V]	Jak2 (UniProt O60674)	1.04
RGVVMYTSKDR [ZG16B_Y136_M133V]	Jak2 (UniProt O60674)	1.02
TVSRPYSFIEF [SEC22B_Y110]	Jak2 (UniProt O60674)	0.848

---

Target: Grb2 SH2 (UniProt P62993)
Sequence (P62993 whole entry, looked up): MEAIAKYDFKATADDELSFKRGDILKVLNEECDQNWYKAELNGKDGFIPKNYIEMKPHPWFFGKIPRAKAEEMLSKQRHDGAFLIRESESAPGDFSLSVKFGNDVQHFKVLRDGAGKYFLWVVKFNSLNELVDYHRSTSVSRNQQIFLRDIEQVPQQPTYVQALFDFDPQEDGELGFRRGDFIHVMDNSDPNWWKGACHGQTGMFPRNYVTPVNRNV
Test: SH2 binding enrichment of the phosphorylated peptide, bacterial display (enrichment ratio); higher = better substrate or ligand; peptides without Tyr show the background
This section presents sequences with their documented SH2 binding enrichment values.
property-label: SH2 binding enrichment

seq-text	measured-target	value-reported
RLASVYTKRCS [CPT2_Y508_P504L]	Grb2 SH2 (UniProt P62993)	0.868
LTSKPYAFTAQ [NDUFS1_Y236_R241Q]	Grb2 SH2 (UniProt P62993)	0.89
LVMFFYAIFGM [SCN1A_Y1684_I1683F]	Grb2 SH2 (UniProt P62993)	1.58
KLPDAYERLIL [G6PD_Y437]	Grb2 SH2 (UniProt P62993)	0.949
YMRGMYFRMTD [PLA2G6_Y541_K545T]	Grb2 SH2 (UniProt P62993)	0.959
YAKSVYWDNTL [NUP107_Y296_E298D]	Grb2 SH2 (UniProt P62993)	0.858
HGEAFYSEVKA [PAK5_Y182_P187A_YF]	Grb2 SH2 (UniProt P62993)	1.21
EQYELYCEMGS [CBL_Y371]	Grb2 SH2 (UniProt P62993)	0.89
GSESDYIIMPN [SCARB1_Y133_V135I]	Grb2 SH2 (UniProt P62993)	0.762
QLLIEYPPEEV [ZZZ3_Y670_K669E]	Grb2 SH2 (UniProt P62993)	1.04
TDTAAYEERVR [SPTB_Y474]	Grb2 SH2 (UniProt P62993)	0.937
HPHECYAKVFD [ALB_Y394_D389H]	Grb2 SH2 (UniProt P62993)	0.944
TIQMMYGCDVG [HLA-A_Y123_I121M]	Grb2 SH2 (UniProt P62993)	0.845
GHLYANDWISI [BEST1_Y227_Y227N]	Grb2 SH2 (UniProt P62993)	24.5
PQIVNYSPDCI [LDHB_Y128_K127N]	Grb2 SH2 (UniProt P62993)	0.891
GGKYSYLKVGH [GRM3_Y480]	Grb2 SH2 (UniProt P62993)	1.23
SISLKYEGRVF [ABL1_Y167_R166K_YF]	Grb2 SH2 (UniProt P62993)	0.86
FVSLIYTNFEA [GSTP1_Y109_I105V_YF]	Grb2 SH2 (UniProt P62993)	1.35
PMQLPYDSRWE [PDGFRA_Y582]	Grb2 SH2 (UniProt P62993)	1.14
LGKLIYPVGFW [NTHL1_Y177]	Grb2 SH2 (UniProt P62993)	1.53
TFLRTYTDAMQ [TSPAN7_Y124]	Grb2 SH2 (UniProt P62993)	0.761
GISDEYHVIQH [GCDH_Y398_R402Q]	Grb2 SH2 (UniProt P62993)	0.804
